# Protocol summary: Vss(L/kg) value was determined in rats after intravenous dose of 5 mg/kg
# Format: ADME, organism-based
# Parameters: dose 5 mg/kg, route intravenous
# Measurement setup: rat, in vivo, read-out: Vss
Measurement label: Vd (L/kg)
Enter your answer as a number in L/kg; do not include the unit.

Vd in this record for COCC(COC)Nc1nc(C)nc2c(-c3ccc(Cl)cc3Cl)c(C)nn12 : 21.5

* * *

# Protocol summary: %bioavail value was determined in rats after po dose of 5 mg/kg
# Format: ADME, organism-based
# Design: dose 5 mg/kg, route oral
# Measurement setup: rat, in vivo, read-out: Bioavailabiility
Measurement label: bioavailability

bioavailability in this record for COCC(COC)Nc1nc(C)nc2c(-c3ccc(Cl)cc3Cl)c(C)nn12 : 36.7%

* * *

# System: Rattus norvegicus
# Protocol summary: AUC(nM.h) value was determined in rats after po dose of 5 mg/kg
# Assay type: ADME, organism-based, Plasma
# Design: dose 5 mg/kg, route oral
# Measurement setup: in vivo
Measurement label: AUC
Answer as a quantity: numeral, then unit.

AUC in this record for COCC(COC)Nc1nc(C)nc2c(-c3ccc(Cl)cc3Cl)c(C)nn12 : 2.26 µM·h

* * *

# Test system: Canis familiaris
# Protocol summary: AUCT(nM.h) value was determined in dogs after po dose of 1 mg/kg
# Format: ADME, organism-based, Canis lupus familiaris, Plasma
# Set-up: dose 1 mg/kg, route oral
# Measurement setup: dog, in vivo
Measurement label: AUC T (µM·h)
Enter your answer as a number in µM·h; do not include the unit.

AUC T in this record for COCC(COC)Nc1nc(C)nc2c(-c3ccc(Cl)cc3Cl)c(C)nn12 : 0.469

* * *

# Test system: Rattus norvegicus
# Protocol summary: AUCT(nM.h) value was determined in rats after po dose of 5 mg/kg
# Format: ADME, organism-based, Plasma
# Design: dose 5 mg/kg, route oral
# Measurement setup: in vivo
Measurement label: AUC T (µM·h)
Enter your answer as a number in µM·h; do not include the unit.

AUC T in this record for COCC(COC)Nc1nc(C)nc2c(-c3ccc(Cl)cc3Cl)c(C)nn12 : 1.86

* * *

Assignment: determine reported pKi for the given molecules.
Protein target, amino acids: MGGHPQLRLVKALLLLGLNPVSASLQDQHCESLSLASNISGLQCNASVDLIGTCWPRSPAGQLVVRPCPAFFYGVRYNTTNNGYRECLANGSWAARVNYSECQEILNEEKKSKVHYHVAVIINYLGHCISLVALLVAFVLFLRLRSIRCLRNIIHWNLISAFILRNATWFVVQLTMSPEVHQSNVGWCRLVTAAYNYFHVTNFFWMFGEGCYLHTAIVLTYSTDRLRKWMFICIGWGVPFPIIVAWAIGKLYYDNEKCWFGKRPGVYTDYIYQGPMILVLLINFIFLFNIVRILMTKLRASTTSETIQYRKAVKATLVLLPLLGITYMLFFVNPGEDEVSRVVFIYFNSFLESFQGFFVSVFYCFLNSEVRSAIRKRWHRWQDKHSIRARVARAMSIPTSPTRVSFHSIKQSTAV
The meaning of pKi here: minus log10 of the concentration in molar units.

pKi in this record for CCCN(CC1CC1)c1nc(C)nc2c(-c3ccc(Cl)cc3Cl)c(C)nn12 : 9.15

pKi in this record for COCCN(CCOC)c1nc(C)nc2c(-c3ccc(Cl)cc3Cl)c(C)nn12 : 8.74

pKi in this record for CCC(COC)Nc1nc(C)nc2c(-c3ccc(Cl)cc3Cl)c(C)nn12 (centres undefined) : 8.72

pKi in this record for CCCCC(CC)Nc1nc(C)nc2c(-c3ccc(Cl)cc3Cl)c(C)nn12 (centres undefined) : 8.80
